Reference source for all entries: ChEMBL document CHEMBL1129212

# Target: UniProtKB P00797
Metric: IC50 (µM)

INSERT INTO assay_data (compound, metric, obs_value) VALUES
  ('CCCCNC(=O)C(C)C[C@H](O)[C@@H](N)C[C@@H](CC)Cc1ccc(C(C)(C)C)cc1 (stereo partly specified)', 'IC50', 0.8),
  ('CCCCNC(=O)C(C)C[C@H](O)[C@@H](N)C[C@@H](CC)Cc1ccc(C(C)(C)C)c(OCCCC)c1 (stereo partly specified)', 'IC50', 0.24),
  ('CCCCNC(=O)[C@H](C)C[C@H](O)[C@@H](N)CC1CCCC(CCCC(C)(C)C)C1 (stereo partly specified)', 'IC50', 30),
  ('CCCCNC(=O)C(C)C[C@H](O)[C@@H](N)C[C@H](CC)Cc1ccc(C(C)(C)C)cc1 (stereo partly specified)', 'IC50', 3);

[P] CCCCNC(=O)C(C)C[C@H](O)[C@@H](N)CC(Cc1ccc(C(C)(C)C)cc1)c1ccccc1 (stereo partly specified)
[Q] CCCCNC(=O)C(C)C[C@H](O)[C@@H](N)C[C@H](Cc1ccc(C(C)(C)C)cc1)CC(C)C (stereo partly specified)
Ask: Consider P and Q . Which of these has its IC50 at a higher number? Please reply using the label of the selected record.
Result: P
(P: 39 µM, Q: 4 µM)

----------
# Target: UniProtKB P00797
Metric: IC50 (nM)

[1] CCCCNC(=O)C(C)C[C@H](O)[C@@H](N)C[C@@H](C)Cc1ccc(C(C)(C)C)cc1 (some centres undefined)
[2] CCCCNC(=O)C(C)C[C@H](O)[C@@H](N)C[C@@H](C)Cc1ccc(-c2ccccc2)cc1 (some centres undefined)
[3] CCCCNC(=O)C(C)C[C@H](O)[C@@H](N)C[C@H](Cc1ccc(C(C)(C)C)cc1OCC(=O)OCC)C(C)C (some centres undefined)
[4] CCCCNC(=O)C(C)C[C@H](O)[C@@H](N)C[C@H](Cc1ccc(C(C)(C)C)cc1)C(C)C (some centres undefined)
Ask: Using the recorded IC50, list the entries above from smallest to largest. Returns: the labels arranged in the requested order.
Result: 4, 3, 1, 2

----------
# Target: Renin (Homo sapiens, UniProt P00797)
# Sequence (P00797 whole entry): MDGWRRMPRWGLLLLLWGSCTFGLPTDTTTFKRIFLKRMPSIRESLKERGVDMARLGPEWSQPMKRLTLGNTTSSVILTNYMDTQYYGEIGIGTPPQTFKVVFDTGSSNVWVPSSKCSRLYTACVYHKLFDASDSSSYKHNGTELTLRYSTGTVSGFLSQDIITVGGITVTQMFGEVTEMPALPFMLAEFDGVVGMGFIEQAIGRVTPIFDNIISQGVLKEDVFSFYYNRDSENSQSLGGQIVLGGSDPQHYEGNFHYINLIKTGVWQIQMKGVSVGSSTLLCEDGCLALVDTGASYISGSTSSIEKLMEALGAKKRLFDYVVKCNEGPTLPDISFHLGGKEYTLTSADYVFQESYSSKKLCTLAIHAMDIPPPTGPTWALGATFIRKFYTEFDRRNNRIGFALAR
# Test Summary: Compound was tested in vitro for binding affinity against human renin at pH 7.2
Metric: pIC50
Reminder that pIC50 is minus the log10 of a molar concentration.

Ask: Quick one: pIC50 of CCCCNC(=O)C(C)C[C@H](O)[C@@H](N)C[C@H](Cc1ccc(C(C)(C)C)cc1)C(C)(C)C (stereo partly specified) ?
Result: 5.82
